Reference source for all entries: patent US8987414

# target: T1, MDMX (In-house, 40 kD) (UniProt O15151 1-134, limits assumed)
# T1 construct: Construct used in the FP assays is described only as in-house, 40 kD; also called MDM4
# T1 sequence (looked up): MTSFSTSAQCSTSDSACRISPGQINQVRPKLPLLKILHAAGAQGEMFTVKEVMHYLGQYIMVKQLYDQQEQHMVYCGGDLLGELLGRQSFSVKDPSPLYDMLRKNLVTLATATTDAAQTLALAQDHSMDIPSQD
# test: competitive fluorescence polarization vs FAM-labeled linear peptide; grade of IC50 (MDMX); scale in paragraph 664: +++ = >10 and <=100 nM
measurement-kind: IC50

[
  {
    "binder": "LTFCAYWAQLCAAXA (N-terminal acetyl (Ac); position 4 = %cs7 (alpha-methyl-D-cysteine) connected by an i to i+7 seven-methylene bis-thioether crosslinker to position 11 = %c7 (alpha-methyl-L-cysteine); position 14 = Nle (norleucine); C-terminal amide (NH2), Thioether-crosslinked macrocycle of Formula II; also called Ac-LTF%cs7AYWAQL%c7AANleA-NH2) [SP-916]",
    "value-measured": "10 to 100 nM"
  }
]

// next entry
Qu. Consider the binder LTFCAYWAQLCAAAAAA (N-terminal acetyl (Ac); position 4 = %cs7 (alpha-methyl-D-cysteine) connected by an i to i+7 seven-methylene bis-thioether crosslinker to position 11 = %c7 (alpha-methyl-L-cysteine); position 17 = D-alanine (a); C-terminal amide (NH2), Thioether-crosslinked macrocycle of Formula II; also called Ac-LTF%cs7AYWAQL%c7AAAAAa-NH2) [SP-917] and give its measured IC50.
Ans. 10 to 100 nM
